Test system: PPARa:RXRa (NR concentration 270 nM, RXRa partner concentration 90 nM)
measurement protocol: PBM binding z-score (relative to random genomic background probes); higher = stronger binding; sequences stand for … in GC…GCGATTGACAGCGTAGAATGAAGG
Output fulfilled for PBM binding z-score not less than 3; output not fulfilled otherwise.

Solved cases (8 shown):
{"record sequence": "GCTTCTAGGTCAGGTTGGTCAGCTAACGGGTACG", "group": "not fulfilled"}
{"record sequence": "CGAACTAGGTCAATGACAGGACAGTGAATAGTAA", "group": "fulfilled"}
{"record sequence": "CTACCAACGTGAACAAGGTCGTTGATTACTATTC", "group": "not fulfilled"}
{"record sequence": "ATCGAAAGGTCGACGAGGTTAGTATACACCGTTT", "group": "fulfilled"}
{"record sequence": "CCGACTGGGGCAAGGTTACCAGAACGCACAGCCA", "group": "not fulfilled"}
{"record sequence": "ACTAGTTGGTCAGCTGCGGTCACACACAATTCGG", "group": "not fulfilled"}
{"record sequence": "GCTGCAAGGTCAGGTTGGTCAGCTAACGGGTACG", "group": "fulfilled"}
{"record sequence": "CCTGCTAGGTCAATGATCAGCTAAAGCAGCTCGC", "group": "not fulfilled"}

Query: # bool: PBM binding z-score of CGTCCATGGTCAGCAGGTCAGTGAAAGCGACGTG >= 3
Result: not fulfilled

Query: # bool: PBM binding z-score of TTACCAAGGTGACAGGTCGTTGATGCACGCCTTG >= 3
Result: not fulfilled

Query: # bool: PBM binding z-score of GATACAGGGTCAAGCCCAGAGTACGCGTATTGAT >= 3
Result: fulfilled

Query: # bool: PBM binding z-score of TCTGCTAGATCAACGATGGTCAGCTAATCTGCTA >= 3
Result: not fulfilled

###

Reported PBM binding z-score values are given for each entry in this list.
System: FXR:RXRa (NR concentration 270 nM, RXRa partner concentration 90 nM)
measurement protocol: PBM binding z-score (relative to random genomic background probes); higher = stronger binding; sequences stand for … in GC…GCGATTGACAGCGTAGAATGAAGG

Guide cases for PBM binding z-score, answers given:
{"record sequence": "AGCTCTAGGTAACCAAGTTCAGTGAATGCCGAAC", "PBM binding z-score": -0.0702}
{"record sequence": "TATACACGGTCAAAGGCCAGAGTACGAATGTCGA", "PBM binding z-score": 1.3}
{"record sequence": "CCTATTAGTTCACCATAAGGGCAACCGAAGCTCG", "PBM binding z-score": 1.35}
{"record sequence": "TAGCCTAGGTCAGATCGGGCCAGTATACGCTATA", "PBM binding z-score": 1.61}
{"record sequence": "ATATGTAGGTTAACGGGTCATTCAGTTTGCGCAT", "PBM binding z-score": 2.83}

Query: Could you tell me which PBM binding z-score is on file for CCGACTGGGGCAAAGGTTACAATACTCAGTACGA ?
Result: 1.77

Query: Could you tell me which PBM binding z-score is on file for GCTCGGAGGACTAGGTCAGAGCTTTGTCCGTAGA ?
Result: -0.693

Query: Could you tell me which PBM binding z-score is on file for TCAGACAGGTGAGGGTAACTCAGGTACGCAGTCG ?
Result: 0.261

###

Tested on: RARb homodimer (NR concentration 270 nM)
measurement protocol: PBM binding z-score (relative to random genomic background probes); higher = stronger binding; sequences stand for … in GC…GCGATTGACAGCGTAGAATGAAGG
Output class 1 for PBM binding z-score not less than 1; output class 0 otherwise.

Solved cases (6 shown):
{"record sequence": "ATATGTAGGTTTTCGGGTCATTCAGTTTGCGCAT", "group": "class 1"}
{"record sequence": "CATACAGGGTCAGCTAGGCCAGATTAGGGACGGC", "group": "class 1"}
{"record sequence": "ATCTCTTGGTAAGACTCAGTTCAGTGAAGAACGC", "group": "class 0"}
{"record sequence": "TCTATTAGTTGAAGGGGAACCGACGAGTCCGTTT", "group": "class 0"}
{"record sequence": "CCTAGCAGGCCAGGGTCATTCAAGCATTTCGCTT", "group": "class 1"}
{"record sequence": "CCTTACGGGCCAAGGTTATAGCACGGGTGGTACG", "group": "class 0"}

Query: # bool: PBM binding z-score of TTACCAAGGTGATGGTCGTTGATCCCTCTGTAGA >= 1
Result: class 0

Query: # bool: PBM binding z-score of TCTTGTAGATCAACAGGAGGATAAGAAAGATCGA >= 1
Result: class 0

###

Tested on: PPARg DBDmut:RXRa IVT, anti-PPARg (DBD mutation: PPARg1 K132A/R137A, NR concentration 270 nM, RXRa partner concentration 90 nM)
measurement protocol: PBM binding z-score (relative to random genomic background probes); higher = stronger binding; sequences stand for … in GC…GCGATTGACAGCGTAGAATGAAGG
Reported PBM binding z-score values are given for each entry in this list.

{"record sequence": "TCAGAAAGGTGAAGGTAACTCAGGTACGCAGTCG", "PBM binding z-score": 0.125}
{"record sequence": "CGTCCAAGGTCAAGGTCAGTGAGAGAGACTCGAA", "PBM binding z-score": 1.23}
{"record sequence": "AGTCAAAGTTCAGGACGGGGTAACGTAAAGCACG", "PBM binding z-score": 1.25}
{"record sequence": "CATACTAGGTCACGAAAGGTCAAAGTCGAATGAC", "PBM binding z-score": 2.56}
{"record sequence": "GCGTCTGGGGCATCAGCAGGTTACCATAACTTAA", "PBM binding z-score": -0.946}

Now for another entry.
Query: Could you tell me which PBM binding z-score is on file for CTCGAAAGGTCGGTTGAGGCGAGTATACGGATAA ?
Result: 0.246

###

System: THRa homodimer (NR concentration 90 nM)
measurement protocol: PBM binding z-score (relative to random genomic background probes); higher = stronger binding; sequences stand for … in GC…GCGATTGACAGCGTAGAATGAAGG
Reported PBM binding z-score values are given for each entry in this list.
// return a plain number; no unit text

{"record sequence": "CAAACTCGGTCAAGGTCAAAGTCGGTTTGTGCCA", "PBM binding z-score": 3.53}
{"record sequence": "GCTATTAGTTGAAATGGCAACCGAATGATTCTCG", "PBM binding z-score": -0.241}
{"record sequence": "ATCGAAAGGTCGTGAGGTGAGTATCCAGAAAGGC", "PBM binding z-score": 1.55}

Now for another entry.
Query: Could you tell me which PBM binding z-score is on file for TAGCGTAGGTCATGCGGGCCAGTATAGTGTCGGC ?
Result: -0.424

###

Tested on: PPARg:RXRa 90nM:30nM, anti-RXR (NR concentration 90 nM, RXRa partner concentration 30 nM)
measurement protocol: PBM binding z-score (relative to random genomic background probes); higher = stronger binding; sequences stand for … in GC…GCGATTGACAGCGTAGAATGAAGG
Output Criterion met for PBM binding z-score not less than 3; output Criterion not met otherwise.

{"record sequence": "CCAGACAAGTGAAAGGTAACTCAGTCTGGTACGC", "group": "Criterion not met"}
{"record sequence": "TCTGCTAGGTCAACGATGGTCAGCTTATCTGCTA", "group": "Criterion not met"}
{"record sequence": "CCGAGTAGGTTATGCGGCATTCAGGCAACGGTGA", "group": "Criterion not met"}
{"record sequence": "GCTGCTAGGTCAACTGGTGGTCAGCTAAAGCTCG", "group": "Criterion not met"}
{"record sequence": "TTACCAAGGTGAGATGAGGTCGTTGATCCAACTC", "group": "Criterion not met"}

Query: # bool: PBM binding z-score of AGAATGAGGTTAAGATCAGGGATACAGAATACAT >= 3
Result: Criterion not met

Query: # bool: PBM binding z-score of CCTACTGGGCCCAAGGTCATTGATTCCAATGCTC >= 3
Result: Criterion met

Query: # bool: PBM binding z-score of TTGAGTAGGTTACCAATGGGGCATTCAGCTTTCT >= 3
Result: Criterion not met

###

Reported PBM binding z-score values are given for each entry in this list.
Test system: PPARg DBDmut IVT, anti-PPARg (DBD mutation: PPARg1 K132A/R137A, NR concentration 270 nM)
measurement protocol: PBM binding z-score (relative to random genomic background probes); higher = stronger binding; sequences stand for … in GC…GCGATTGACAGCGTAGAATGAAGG
// return a plain number; no unit text

Guide cases for PBM binding z-score, answers given:
{"record sequence": "GTACCAAGGTGAATAGGTCGTTTATGAGTAGGCG", "system tested": "PPARg DBDmut IVT, anti-PPARg (DBD mutation: PPARg1 K132A/R137A, NR concentration 270 nM)", "measure": "PBM binding z-score", "measurement": 0.34}
{"record sequence": "ATATGTAGGGTAGCTGGGGTCATTCAGACTAGGC", "system tested": "PPARg DBDmut IVT, anti-PPARg (DBD mutation: PPARg1 K132A/R137A, NR concentration 270 nM)", "measure": "PBM binding z-score", "measurement": 3.4}
{"record sequence": "TCTAGCAGGCCAGAGGGTCACTCCAGAGGTACGG", "system tested": "PPARg DBDmut IVT, anti-PPARg (DBD mutation: PPARg1 K132A/R137A, NR concentration 270 nM)", "measure": "PBM binding z-score", "measurement": -1.75}

Query: Could you tell me which PBM binding z-score is on file for GCTGCTAGGTCAGGTTGGTCAGGTAACGGGTACG ?
Result: -0.722
